target: T1, human collagen type I (acid soluble, extracted from placenta, Sigma C7774) (human, UniProt P02452 162-1218; P08123 80-1119); test: dried collagen assay
T1 construct: gelled and dried as a fibril film in the assay; also called dried human collagen; h-Collagen
T1 sequence (P02452 162-1218 limits assumed, chain 1 of 2): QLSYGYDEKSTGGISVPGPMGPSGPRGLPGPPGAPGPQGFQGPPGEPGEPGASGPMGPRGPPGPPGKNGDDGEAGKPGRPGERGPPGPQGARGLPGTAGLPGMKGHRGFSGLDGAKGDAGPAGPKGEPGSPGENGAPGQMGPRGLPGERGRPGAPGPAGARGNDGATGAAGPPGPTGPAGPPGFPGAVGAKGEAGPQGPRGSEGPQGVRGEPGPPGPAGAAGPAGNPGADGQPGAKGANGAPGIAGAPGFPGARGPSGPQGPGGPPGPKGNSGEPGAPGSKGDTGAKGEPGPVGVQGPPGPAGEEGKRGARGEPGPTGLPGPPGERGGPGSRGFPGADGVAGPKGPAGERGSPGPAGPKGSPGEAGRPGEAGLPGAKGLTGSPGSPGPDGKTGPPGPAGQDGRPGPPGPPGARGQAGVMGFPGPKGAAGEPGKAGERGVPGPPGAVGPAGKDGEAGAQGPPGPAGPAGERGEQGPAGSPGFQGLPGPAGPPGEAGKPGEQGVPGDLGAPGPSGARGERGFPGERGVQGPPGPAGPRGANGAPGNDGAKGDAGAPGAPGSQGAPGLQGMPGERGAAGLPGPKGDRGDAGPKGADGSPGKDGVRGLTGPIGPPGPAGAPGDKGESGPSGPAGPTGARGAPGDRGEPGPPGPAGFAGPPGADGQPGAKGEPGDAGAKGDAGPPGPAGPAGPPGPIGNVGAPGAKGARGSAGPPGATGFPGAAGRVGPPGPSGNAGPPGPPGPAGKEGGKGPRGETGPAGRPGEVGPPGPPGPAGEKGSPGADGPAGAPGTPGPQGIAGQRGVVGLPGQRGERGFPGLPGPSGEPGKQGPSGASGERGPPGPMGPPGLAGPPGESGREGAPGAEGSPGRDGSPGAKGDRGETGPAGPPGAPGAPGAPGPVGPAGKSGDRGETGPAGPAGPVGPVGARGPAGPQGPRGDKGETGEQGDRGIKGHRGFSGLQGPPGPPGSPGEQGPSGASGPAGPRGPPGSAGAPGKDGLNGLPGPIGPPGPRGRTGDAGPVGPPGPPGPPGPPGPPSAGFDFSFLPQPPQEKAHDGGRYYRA
T1 sequence (P08123 80-1119 limits assumed, chain 2 of 2): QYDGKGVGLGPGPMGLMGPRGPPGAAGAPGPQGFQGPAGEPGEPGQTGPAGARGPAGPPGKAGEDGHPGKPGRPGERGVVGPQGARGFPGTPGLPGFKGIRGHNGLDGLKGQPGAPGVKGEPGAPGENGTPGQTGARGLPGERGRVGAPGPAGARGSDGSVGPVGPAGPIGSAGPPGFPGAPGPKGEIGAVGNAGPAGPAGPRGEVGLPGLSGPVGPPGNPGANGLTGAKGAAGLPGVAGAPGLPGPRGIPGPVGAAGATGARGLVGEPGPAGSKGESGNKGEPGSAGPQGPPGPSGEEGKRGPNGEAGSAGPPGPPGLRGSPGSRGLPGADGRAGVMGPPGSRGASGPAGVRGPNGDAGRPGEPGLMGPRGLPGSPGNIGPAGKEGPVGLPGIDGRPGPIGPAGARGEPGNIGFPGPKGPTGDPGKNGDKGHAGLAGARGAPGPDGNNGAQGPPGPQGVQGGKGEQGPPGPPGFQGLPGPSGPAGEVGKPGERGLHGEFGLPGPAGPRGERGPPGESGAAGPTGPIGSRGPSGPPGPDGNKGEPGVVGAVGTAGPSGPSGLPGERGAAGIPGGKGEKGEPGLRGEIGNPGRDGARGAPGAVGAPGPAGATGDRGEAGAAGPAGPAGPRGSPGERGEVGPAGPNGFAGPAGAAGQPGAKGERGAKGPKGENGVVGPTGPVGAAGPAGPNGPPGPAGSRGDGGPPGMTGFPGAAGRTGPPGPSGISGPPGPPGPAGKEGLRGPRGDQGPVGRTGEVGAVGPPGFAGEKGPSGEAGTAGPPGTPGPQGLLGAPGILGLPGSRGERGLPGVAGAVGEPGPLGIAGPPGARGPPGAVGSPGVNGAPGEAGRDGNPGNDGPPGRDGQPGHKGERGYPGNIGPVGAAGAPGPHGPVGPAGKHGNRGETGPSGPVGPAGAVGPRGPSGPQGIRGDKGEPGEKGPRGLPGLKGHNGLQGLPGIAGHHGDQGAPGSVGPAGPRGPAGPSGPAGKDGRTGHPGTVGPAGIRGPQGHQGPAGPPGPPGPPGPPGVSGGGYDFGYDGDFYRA
Bridge positions count the residues as written; N and C are the ends. Ends that are not written are not given here.
Record form. Attribute: % bound. Fill in for each entry.
Give a bare numeral; the unit % is implied.

// query Provide measured % bound value, entry: WTCSGDEYTWHCNYE (disulfide 3-12 (inferred)) [SEQ ID NO: 114]
// result 19

// query Provide measured % bound value, entry: DWTCSGDPYTWHCNYE (disulfide 4-13 (inferred)) [SEQ ID NO: 115]
// result 39

// query Provide measured % bound value, entry: DWTCSGDEFTWHCNYE (disulfide 4-13 (inferred)) [SEQ ID NO: 119]
// result 55

// query Provide measured % bound value, entry: DWTCSGDHLTWKCNYG (disulfide 4-13 (inferred)) [SEQ ID NO: 117]
// result 38

// query Provide measured % bound value, entry: DWTCSGNHLTWYCNYG (disulfide 4-13 (inferred)) [SEQ ID NO: 118]
// result 68

// query Provide measured % bound value, entry: DWTCSGDHLTWHCNYG (disulfide 4-13 (inferred)) [SEQ ID NO: 116]
// result 58

Data origin, for the record: patent US20070293656A1
